Study the reported IC50 values for Fibroblast growth factor receptor 1 (Homo sapiens) given below; they originate from different publications.

Here are 4 molecules together with their reported answers.
COc1cc(OC)c(F)c(-c2ncc3c(-c4ccc5c(c4)CCNC5=O)n[nH]c3n2)c1F	< 100 nM
C=CC(=O)N1C[C@@H](Nc2ncc3cc(-c4c(Cl)c(OC)cc(OC)c4Cl)ccc3n2)C2(CC2)C1 (stereo in doubt)	15 nM
COc1ccc(Nc2ncnc(Nc3cc(-c4ccco4)n[nH]3)n2)cc1OC	< 1050 nM
C=CC(=O)Nc1cccc(-c2cccc3cnc(Nc4ccc(N5CCN(C)CC5)cc4F)nc23)c1	100 to 500 nM

Input `COc1cc(Nc2ncnc(Nc3cc(-c4ccco4)n[nH]3)n2)cc(OC)c1OC` . Output IC50: < 977 nM

The molecule listed as COc1cc(OC)c(Cl)c(-c2cc3[nH]nc(-c4ccc(C(O)C(=O)N(C)C)c(F)c4)c3cn2)c1Cl (stereo not shown) has a reported IC50 of < 100 nM

`O=S(=O)(Nc1cc(-c2ccc(F)cc2F)cc(-n2cnc3cc(-c4cnn(CCN5CCOCC5)c4)ccc32)n1)C1CC1` has a reported IC50 of 2 nM

Record `COc1cc2nccc(Oc3ccc(N4C(=O)CNC4=S)c(Cl)c3)c2cc1C(N)=O` , field IC50: 200 to 1000 nM

The reported IC50 of the molecule `COc1ccc(N(C)c2ncnc(Nc3cc(OC)c(OC)c(OC)c3)n2)cc1` was 1010 to 6040 nM

get_value(item= `CCN(C(=O)Nc1cc(NC(C)C)c(C#N)cn1)c1ccc(-c2cnn(C)c2)c(C=O)n1` , readout=IC50) returns > 10000 nM

---

pIC50: −log10 of the molar value.
Several publications report pIC50 on Fibroblast growth factor receptor 1 (Homo sapiens, UniProt P11362); those values are gathered here.

CCOC(=O)C(Nc1nc2ccccc2n1-c1ncnc(Nc2cc(OC)c(OC)c(OC)c2)n1)c1ccccc1 (centres unmarked)	> 6.14
COc1cc(OC)c(F)c(N2Cc3cnc(N)c(-c4ccccc4)c3N(C)C2=O)c1F	> 7.00
COc1cc2nccc(Oc3cc4occ(C(=O)NC5CC5)c4cc3F)c2cc1C(N)=O	6.00 to 6.70
COc1ccc(Nc2ncnc(N(CC(=O)O)c3ccc4c(c3)OCO4)n2)cc1OC	< 4.98

Consider the additional compound presented here.
Lab entry: Fibroblast growth factor receptor 1 (Homo sapiens, UniProt P11362) assay, compound `Cc1[nH]c(/C=C2\C(=O)Nc3cccc(-c4ccc(F)cc4)c32)c(C)c1C(=O)NCCN1CCCC1` , pIC50 = 7.24

---

Below are IC50 measurements against Fibroblast growth factor receptor 1 (Homo sapiens) drawn from the literature.

Looking up `Cc1[nH]c2c(c1C(=O)N1CCC[C@H]1CN1CCCC1)CC/C2=C1/C(=O)Nc2ncccc21` , I found its IC50 recorded as 2070 nM

Measured IC50, `COc1cc2nccc(Oc3ccc(NC(=S)NCCCSC)c(Cl)c3)c2cc1C(N)=O` : 200 to 1000 nM

// field: IC50; key: `C=CC(=O)Nc1cccc(C)c1Nc1ccc(/C=C(\F)c2c(Cl)c(OC)cc(OC)c2Cl)cn1` ; value = > 10000 nM

The compound identified as CC(Oc1ccc2[nH]nc(/C=C/c3ccc(CN4CCCOCC4)cc3)c2c1)c1c(Cl)cncc1Cl (stereo not shown) registered its IC50 at ≤ 10 nM

Recorded result, `COc1cc(OC)c(F)c(N2Cc3cnc(N)c(C#N)c3N(CC3CC3)C2=O)c1F` , IC50: < 100 nM
